Catalogue of melting point values

Take a look at these entries with their results.
> print(dat)
                                   molecule   test.readout           observed
1  CCCCC(=O)O[C@H]1[C@@H](n2ccc(N)nc2=O)O[C@@](CO)(N=[N+]=[N-])[C@H]1OC(=O)CCCC.CS(=O)(=O)O  melting point  115.3 to 120.1 °C
2  Cl.[N-]=[N+]=N[C@]1(CO)O[C@H](n2ccc(N)nc2=O)[C@H](OC(=O)c2ccccc2)[C@@H]1OC(=O)c1ccccc1  melting point  166.2 to 168.1 °C
3  CCCC(=O)O[C@H]1[C@@H](n2ccc(N)nc2=O)O[C@@](CO)(N=[N+]=[N-])[C@H]1OC(=O)CCC.Cl  melting point  154.6 to 155.6 °C

Now turn to the next compound.
Consider the compound `CC(=O)OC[C@@]1(N=[N+]=[N-])O[C@H](n2ccc(N)nc2=O)[C@H](OC(C)=O)[C@@H]1OC(C)=O.Cl` and give its measured melting point.
88 to 90.9 °C
